Hi there, I'd appreciate the recorded melting point for every entry that follows.

compound smiles | melting point
COc1cc(C)c(C(=O)c2c(F)ncc(C)c2I)c(OC)c1OC | 140 to 141 °C
COc1cc(C)c(C(=O)c2c(Cl)cnc(Cl)c2C(F)(F)F)c(OC)c1OC | 106 to 109 °C
COc1cc(C)c(C(=O)c2c(OC)cnc(Cl)c2C(F)(F)F)c(OC)c1OC | 117 to 119 °C

Please supply melting point for each of the following items, keeping them in order.
1. COc1cc(C)c(C(=O)c2c(OC)cncc2C(F)(F)F)c(OC)c1OC
2. COc1cc(C)c(C(=O)c2c(OC)ncc(Br)c2Cl)c(OC)c1OC

Out:
1. 103 to 106 °C
2. 84 to 87 °C

Value source: patent US9655362B2
